test description: chemical genetic growth profiling, strain panel (AID 1159580);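 also: tested at 20 µM; growth read once vehicle control cultures reached saturation at 30 °C; 1 = growth at the plate median or of vehicle wells; lower values mean less growth of the strain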
test parameters: S. cerevisiae deletion strains, growth OD, locus YJL166W, strain qcr8, active compounds read low
The campaign covered roughly 5,500 compounds. About 2,000 (36%) were called active. About 18% were inconclusive and are not listed. This is one part of the list.
Some molecules, each annotated with its measured normalized growth.
// response body must contain only the number

# input Given the entry C[C@H]1O[C@H](OC2[C@@H](O)[C@@H](O)C(O)[C@H](O)[C@H]2O)[C@@H](N)C[C@@H]1N=C(N)C(=O)O (stereo partly specified) , report its measured normalized growth.
# output 0.99

# input Next molecule up: Cc1ccccc1OCC(O)CO (stereo unspecified)
# output 0.978

# input Next molecule up: CCC(c1ccc(O)cc1)C(CC)c1ccc(O)cc1 (stereo unspecified)
# output 0.812

# input Next molecule up: "O=C(O)C1=C[C@@H](O)[C@@H](O)[C@H](O)C1"
# output 0.974

# input Next molecule up: "CC1(C)O[C@H]2CC(=O)OC[C@]23[C@H]2CC[C@@]4(C)[C@H](c5ccoc5)OC(=O)[C@H]5O[C@]54[C@]2(C)C(=O)C[C@@H]13"
# output 0.979

# input Next molecule up: C[C@]12CCC3c4ccc(O)cc4CCC3C1CC[C@@H]2O (stereo partly specified)
# output 0.971

---

test description: chemical genetic growth profiling, strain panel (AID 1159580);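 also: tested at 20 µM; growth read once vehicle control cultures reached saturation at 30 °C; 1 = growth at the plate median or of vehicle wells; lower values mean less growth of the strain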
test parameters: S. cerevisiae deletion strains, growth OD, locus YHR200W, strain rpn10, active compounds read low
About 2,000 (36%) of roughly 5,500 compounds were called active. Inconclusive results (about 18%) are left out. The list shows a part of the results.
measurement type: normalized growth

Reference set, count: 3
{"compound": "CC(=O)[C@@]1(O)CCC2C3C[C@H](C)C4=CC(=O)C=CC4(C)[C@@]3(F)[C@@H](O)C[C@@]21C (stereo partly specified)", "normalized growth": "1.01 (inactive)"}
{"compound": "CNC(=O)Oc1cccc2c1OC(C)(C)O2", "normalized growth": "0.995 (inactive)"}
{"compound": "COC(=O)C[C@H]1C(C)(C)C2(Cl)O[C@@]34CC2C(=O)[C@]1(C)C3CC[C@]1(C)C4=CC(=O)O[C@H]1c1ccoc1 (stereo partly specified)", "normalized growth": "0.992 (inactive)"}

# input Given the entry C[C@@H]1O[C@@H](OC[C@H]2OC(Oc3c(-c4ccc(OCCO)c(OCCO)c4)oc4cc(OCCO)cc(O)c4c3=O)[C@H](O)[C@@H](O)[C@@H]2O)[C@H](O)[C@H](O)[C@H]1O (stereo partly specified) , report its measured normalized growth.
# output 0.983 (inactive)

# input Next compound up: C[C@@H]1CC[C@@]2(NC1)O[C@H]1C[C@H]3C4CC=C5C[C@@H](O)CC[C@]5(C)C4CC[C@]3(C)C1[C@@H]2C (stereo partly specified)
# output 0.103 (active)

# input Next compound up: "CCc1cccc(CC)c1N(COC)C(=O)CCl"
# output 1.02 (inactive)

# input Next compound up: CC1CC[C@]2(NC1)O[C@H]1CC3C4CC[C@H]5C[C@@H](O)CC[C@]5(C)C4CC[C@]3(C)[C@H]1[C@@H]2C (stereo partly specified)
# output 0.103 (active)

# input Next compound up: "COc1ccc(-c2cc(=O)c3c(O)cc(O[C@H]4O[C@H](CO[C@@H]5O[C@@H](C)[C@H](O)[C@@H](O)[C@H]5O)[C@@H](O)[C@H](O)[C@H]4O)cc3o2)cc1"
# output 1.02 (inactive)

# input Next compound up: C[C@@H]1CC[C@@]2(OC1)O[C@H]1CC3C4CC[C@H]5C[C@@H](O)CC[C@]5(C)C4CC[C@]3(C)[C@H]1[C@@H]2C (stereo partly specified)
# output 0.997 (inactive)

# input Next compound up: CC1CCC2(OC1)OC1CC3C4CC[C@H]5C[C@@H](O)CC[C@]5(C)C4CC(=O)[C@]3(C)C1C2C (stereo partly specified)
# output 0.987 (inactive)

# input Next compound up: "CN1C(C)(C)CCCC1(C)C"
# output 0.997 (inactive)

# input Next compound up: CC1(C)C(=O)C=C[C@@]2(C)C1C=C[C@]1(C)C2CC[C@@]2(C)[C@H](c3ccoc3)OC(=O)C3OC321 (stereo partly specified)
# output 0.986 (inactive)

# input Next compound up: "O=c1c(O)c(-c2cc(O)c(O)c(O)c2)oc2cc(O)cc(O)c12"
# output 1.02 (inactive)

# input Next compound up: CC(=O)O[C@@H]1CC2C(C)(C)C(=O)C=C[C@]2(C)C2CC[C@@]3(C)[C@H](c4ccoc4)OC(=O)[C@H]4O[C@]43[C@@]21C (stereo partly specified)
# output 0.997 (inactive)

# input Next compound up: CC12CCC3c4ccc(OC(=O)c5ccccc5)cc4CCC3C1CCC2O (stereo unspecified)
# output 1 (inactive)

# input Next compound up: CC1(C)C2CC(=O)[C@]3(C)C(CC[C@@]4(C)[C@H](c5ccoc5)OC(=O)C5OC543)[C@@]2(C)[C@@H](O)C[C@H]1O (stereo partly specified)
# output 0.996 (inactive)

# input Next compound up: CC(C)N(CCC(C(N)=O)(c1ccccc1)c1ccccn1)C(C)C (stereo unspecified)
# output 0.999 (inactive)

# input Next compound up: "COc1cccc2c(C)cc(=O)[nH]c12"
# output 0.919 (active)

# input Next compound up: C[C@@H]1CC[C@@]2(OC1)OC1CC3C4CC=C5C[C@@H](O)CC[C@]5(C)C4CC[C@]3(C)C1[C@@H]2C (stereo partly specified)
# output 0.999 (inactive)

# input Next compound up: "CC(C)[N+](C)(CCC(C(N)=O)(c1ccccc1)c1ccccc1)C(C)C"
# output 1 (inactive)
